Tested on: HCVPV1b subgenomic replicon (wild type 1b)
ASSAY PROCEDURE: HCV replicon RNA replication assay, wild type 1b
Format: cell-based, HCV genotype 1b (Con-1), Huh-7 cells
CONDITION NOTES: Hepatitis C virus; Table 1; luciferase replicon, Huh-7, 72 h; read-out: WT 1b Ec50
pEC50: −log10 of the molar value.
pEC50 by entry:

| QUERY SMILES | pEC50 |
| --- | --- |
| COCCn1ccc(C(=O)N[C@H]2CCCCC/C=C\[C@@H]3C[C@@]3(C(=O)NS(=O)(=O)C3(C)CC3)NC(=O)[C@@H]3C[C@@H](Oc4cc(OC(C)C)nc5c(C)c(OC)ccc45)CN3C2=O)n1 | 9.49 |
| CC(C)Oc1cc(O[C@@H]2C[C@H]3C(=O)N[C@]4(C(=O)NS(=O)(=O)C5(C)CC5)C[C@H]4/C=C\CCCCC[C@H](NC(=O)c4ccn(C)n4)C(=O)N3C2)c2ccc(Cl)c(Cl)c2n1 | 9.77 |
| COc1ccc2c(O[C@@H]3C[C@H]4C(=O)N[C@]5(C(=O)NS(=O)(=O)C6(C)CC6)C[C@H]5/C=C\CCCCC[C@H](NC(=O)c5ccc(C(C)(C)O)s5)C(=O)N4C3)cc(OC(C)C)nc2c1C | 9.18 |
| COc1ccc2c(O[C@@H]3C[C@H]4C(=O)N[C@]5(C(=O)NS(=O)(=O)C6(C)CC6)C[C@H]5/C=C\CCCCC[C@H](NC(=O)c5ccn(CCF)n5)C(=O)N4C3)cc(OC(C)C)nc2c1C | 9.57 |
| CNC(=O)Cn1ccc(C(=O)N[C@H]2CCCCC/C=C\[C@@H]3C[C@@]3(C(=O)NS(=O)(=O)C3(C)CC3)NC(=O)[C@@H]3C[C@@H](Oc4cc(OC(C)C)nc5c(C)c(OC)ccc45)CN3C2=O)n1 | 8.82 |
| COc1c(F)ccc2c(O[C@@H]3C[C@H]4C(=O)N[C@]5(C(=O)NS(=O)(=O)C6(C)CC6)C[C@H]5/C=C\CCCCC[C@H](NC(=O)c5ccc(C)s5)C(=O)N4C3)cc(OC(C)C)nc12 | 9.16 |
| COc1ccc2c(O[C@@H]3C[C@H]4C(=O)N[C@]5(C(=O)NS(=O)(=O)C6(C)CC6)C[C@H]5/C=C\CCCCC[C@H](NC(=O)c5ccn(CC(F)(F)F)n5)C(=O)N4C3)cc(OC(C)C)nc2c1C | 9.80 |
| COc1ccc2c(O[C@@H]3C[C@H]4C(=O)N[C@]5(C(=O)NS(=O)(=O)C6(C)CC6)C[C@H]5/C=C\CCCCC[C@H](NC(=O)c5cnn(CC(F)F)n5)C(=O)N4C3)cc(OC(C)C)nc2c1C | 9.43 |
| CNC(=O)Cn1ccc(C(=O)N[C@H]2CCCCC/C=C\[C@@H]3C[C@@]3(C(=O)NS(=O)(=O)C3CC3)NC(=O)[C@@H]3C[C@@H](Oc4cc(OC(C)C)nc5c(C)c(OC)ccc45)CN3C2=O)n1 | 8.48 |
